Overview of recorded composite z-score for various compounds
- Test details: binders from COS7 lysate, DM2A8 probe, primary screen, torsin A project, cell lysate, small-molecule microarray, fluorescence 635/667 (AID 1065)
- Details: higher = more signal, COS7 lysate expressing mutant human TOR1A

{"Compound": "O=C(C1N=C(c2ccc(OCCCO)cc2)N(c2ccccc2)O1)N1CCOCC1 (stereo not given)", "composite z-score": 0.267}
{"Compound": "C=CC[C@]1(C(=O)NCCCOC)N=C(c2ccc(OCCCO)cc2)O[C@H]1c1ccccc1N=[N+]=[N-]", "composite z-score": -0.0693}
{"Compound": "O=C1C2C=CC(C(O)c3ccc(F)cc3)N(Nc3ccccc3F)C2C(=O)N1c1ccccc1 (stereo not given)", "composite z-score": -0.333}
{"Compound": "CN(C)CCCC[C@@H]1NC(=O)[C@H]2C[C@@H](C(=O)NCCCCCNC(=O)CS)[C@@H](c3cccc(OCCO)c3)N2C1=O", "composite z-score": 0.411}
{"Compound": "CC1(C)[C@@H]2CC(C(O)C3C=CC4C(=O)N(c5ccccc5)C(=O)C4N3Nc3ccccc3)=C[C@H]1C2 (stereo not given in full)", "composite z-score": -0.6}
